Source: patent US7691869B2

Documented Ki across a set of molecules
Target: human adenosine A2A receptor (Homo sapiens, UniProt P29274)
Sequence (P29274 whole entry): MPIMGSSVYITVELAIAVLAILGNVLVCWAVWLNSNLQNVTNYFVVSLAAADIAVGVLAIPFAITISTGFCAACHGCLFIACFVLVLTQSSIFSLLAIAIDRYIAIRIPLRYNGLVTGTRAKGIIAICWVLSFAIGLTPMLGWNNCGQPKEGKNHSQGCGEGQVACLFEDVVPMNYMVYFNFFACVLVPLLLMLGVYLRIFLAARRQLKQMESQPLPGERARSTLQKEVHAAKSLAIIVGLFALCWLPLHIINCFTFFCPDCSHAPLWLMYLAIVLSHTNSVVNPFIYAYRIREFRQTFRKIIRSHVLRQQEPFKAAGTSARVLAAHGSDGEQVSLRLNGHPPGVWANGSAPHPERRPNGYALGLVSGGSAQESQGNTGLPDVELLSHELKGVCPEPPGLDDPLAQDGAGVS
Experiment: Human cloned A2A adenosine receptor binding assay ([3H]ZM241385 displacement, CHO membranes)
Conditions: [3H]ZM241385, CHO cells transfected with human recombinant A2A receptors
Method: CHO Membranes Preparation The human adenosine receptors have been transfected in CHO cells according with the method previously described by Klotz et al. (Naunyn-Schmied. Arch Pharm. 1998, 357: 1-9). […] All new synthesized compounds have been tested to evaluate their affinity to human A1, A2A, A2B and A3 adenosine receptors. […] Non-specific binding is determined in the presence of 10 μM of CHA and this is always ≦10% of the total binding. […]

Consider the worked cases shown below.
• CN(CCN(C)c1ccc(F)cc1F)CCn1ccc2c1nc(N)n1nc(-c3ccco3)nc21 [Example 29] = ~28 nM
• Nc1nc2c(ccn2CCN2CCN(c3ccc(F)cc3F)CC2)c2nc(-c3ccco3)nn12 [Example 30] = ~5 nM

Next, consider the following molecule.
What value of Ki has been reported for the following molecule? Nc1nc2c(ccn2CCN2CCN(C(=O)c3ccc(F)cc3F)CC2)c2nc(-c3ccco3)nn12 [Example 4]
~1 nM
